Target: T1, Eukaryotic initiation factor 4E (eIF4E), full-length human (human, UniProt P06730 1-217)
T1 construct: eIF4E, human, full length
T1 sequence (P06730 whole entry): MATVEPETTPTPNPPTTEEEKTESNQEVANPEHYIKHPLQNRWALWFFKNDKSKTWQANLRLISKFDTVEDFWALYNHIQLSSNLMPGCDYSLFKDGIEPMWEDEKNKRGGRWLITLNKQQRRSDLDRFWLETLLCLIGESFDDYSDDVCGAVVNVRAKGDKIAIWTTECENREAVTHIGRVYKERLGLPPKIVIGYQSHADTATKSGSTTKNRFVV
Test: SPR; eIF4E amine coupled to a CM5 chip (about 1000 RU, m7GTP present at immobilisation), peptides injected; 10 mM Hepes pH 7.6, 0.15 M NaCl, 1 mM DTT, 0.1% Tween20, 3% DMSO; Biacore T100; Kd from the equilibrium responses (Keq), 1:1 model, three titrations
Details: both partners purified
reported metric: Kd (nM)

binder	reported metric	unit annotation	assay result
KKRYSRDQLLAL (PHAGESOL with V10L; also called PHAGESOL V10L; source: synthetic peptide (Mimotopes), HPLC purified to >90%) [VL-PHAGESOL peptide]	Kd	nM	37.2
KKRYSREQLVAL (PHAGESOL with D7E; source: synthetic peptide (Mimotopes), HPLC purified to >90%) [PHAGESOL-D7E peptide]	Kd	nM	51.6
KKRYSRDFLVAL (PHAGESOL with Q8F; source: synthetic peptide (Mimotopes), HPLC purified to >90%) [PHAGESOL-Q8F peptide]	Kd	nM	196
KKRYSRDFLLAL (PHAGESOL with V10L and Q8F; source: synthetic peptide (Mimotopes), HPLC purified to >90%) [VL-PHAGESOL-Q8F peptide]	Kd	nM	49.6
KKRYDREQLLGL (eIF4G1 peptide with F8Q and F12L; also called eIF4G1_F8Q/F12L; source: synthetic peptide (Mimotopes), HPLC purified to >90%) [eIF4G1-QL peptide]	Kd	nM	1090
KKRYSRDQLVAF (PHAGESOL with L12F; source: synthetic peptide (Mimotopes), HPLC purified to >90%) [PHAGESOL-L12F peptide]	Kd	nM	112

These measurements were taken from paper PMC3477164.
